Method Notes: In vitro leishmanicidal activity on L. amazonensis intracellular amastigotes
Type: cell-based, Leishmania amazonensis
Measurement Parameters: mouse; CC50 J774.A1 macrophages / IC50 L. amazonensis amastigotes; read-out: Selectivity SI (CC50/IC50), amastigotes

Compound	selectivity ratio
CC(C)=CCC/C(C)=C/C=NO	9.39
CCCCCCCCCCCCCCCCOP(=O)([O-])OCC[N+](C)(C)C [Miltefosine, reference compound]	23.1
CC(C)=CCCC(C)=CC=NNc1ccc([N+](=O)[O-])cc1[N+](=O)[O-] [Compound 9, citral 2,4-dinitrophenylhydrazone]	1.47

----------
Tested on: L. amazonensis promastigotes
Method Notes: In vitro leishmanicidal activity on L. amazonensis promastigotes (Alamar Blue)
Format: cell-based, Leishmania amazonensis
Measurement Parameters: Leishmania amazonensis, 72 h, promastigotes, 72 h; ± SD; read-out: L. amazonensis Promastigotes IC50

Compound	Study Target	Qualifier	IC50 (µM)
CC(C)=CCC/C(C)=C/C=NOC(=O)c1ccccc1 [Compound 5, citral oxime benzoate]	L. amazonensis promastigotes	=	29.3
CC(C)=CCC/C(C)=C/C=NO [Compound 2, citral oxime]	L. amazonensis promastigotes	=	40.8
CCCC(=O)ON=C/C=C(\C)CCC=C(C)C [Compound 4, citral oxime butyrate]	L. amazonensis promastigotes	>	100

----------
Method Notes: Cytotoxicity on murine macrophages
Format: cell-based
Measurement Parameters: mouse; murine macrophages J774.A1; ± SD
Test Readout: CC50

Compound	Result
CC(C)=CCCC(C)=CC=NNc1ccc([N+](=O)[O-])cc1[N+](=O)[O-] [Compound 9, citral 2,4-dinitrophenylhydrazone]	31.6 µM
